# key: entry, value: apparent KD of MS2 coat protein
tested on: MS2 coat protein; assay: apparent KD of MS2 coat protein; designed switch direction (-1 OFF switch, 1 ON switch): 1; higher = weaker reporter binding; conditions: input ligand: FMN 200 uM

sequence_code	apparent KD of MS2 coat protein
GGAUCGGAGGCAGGAUAUGGGCUCAGAACAUGAGGAUCACCCAUGUAAAACGGCGCAAUGCGCCACCAGAAGGGCCUCCAGUCG [Esussoed] (Eterna round: R96, puzzle: Same State NG 2)	13.2 nM
AACCCGAUGGAAGGAUAUGGCACCUUAUUGGUGCCAGAAGGUCCAAACAUGAGGAUCACCCAUGUGGGCCGGUCGAAAGACCGG [Fiskers NG1ss - 11] (Eterna round: R96, puzzle: Same State NG 1)	32.4 nM

Any idea what its apparent KD of MS2 coat protein is? The sequence is GGCGAACAGGCUAACAUGAGGAUCACCCAUGUGGACUCAUGUUAGGAUAUCGGGAAGGAGGAAACCGAGAAGGGACGGUGAGCC [AK SSNG3-V2-47] (Eterna round: R96, puzzle: Same State NG 3)
18.8 nM

// data source = the supplement of paper PMC9170038
